pIC50 by entry:
- Experimental target: recombinant human NF-kappaB-inducing kinase (NIK/MAP3K14) (Homo sapiens)
- Sequence (Q99558 whole entry): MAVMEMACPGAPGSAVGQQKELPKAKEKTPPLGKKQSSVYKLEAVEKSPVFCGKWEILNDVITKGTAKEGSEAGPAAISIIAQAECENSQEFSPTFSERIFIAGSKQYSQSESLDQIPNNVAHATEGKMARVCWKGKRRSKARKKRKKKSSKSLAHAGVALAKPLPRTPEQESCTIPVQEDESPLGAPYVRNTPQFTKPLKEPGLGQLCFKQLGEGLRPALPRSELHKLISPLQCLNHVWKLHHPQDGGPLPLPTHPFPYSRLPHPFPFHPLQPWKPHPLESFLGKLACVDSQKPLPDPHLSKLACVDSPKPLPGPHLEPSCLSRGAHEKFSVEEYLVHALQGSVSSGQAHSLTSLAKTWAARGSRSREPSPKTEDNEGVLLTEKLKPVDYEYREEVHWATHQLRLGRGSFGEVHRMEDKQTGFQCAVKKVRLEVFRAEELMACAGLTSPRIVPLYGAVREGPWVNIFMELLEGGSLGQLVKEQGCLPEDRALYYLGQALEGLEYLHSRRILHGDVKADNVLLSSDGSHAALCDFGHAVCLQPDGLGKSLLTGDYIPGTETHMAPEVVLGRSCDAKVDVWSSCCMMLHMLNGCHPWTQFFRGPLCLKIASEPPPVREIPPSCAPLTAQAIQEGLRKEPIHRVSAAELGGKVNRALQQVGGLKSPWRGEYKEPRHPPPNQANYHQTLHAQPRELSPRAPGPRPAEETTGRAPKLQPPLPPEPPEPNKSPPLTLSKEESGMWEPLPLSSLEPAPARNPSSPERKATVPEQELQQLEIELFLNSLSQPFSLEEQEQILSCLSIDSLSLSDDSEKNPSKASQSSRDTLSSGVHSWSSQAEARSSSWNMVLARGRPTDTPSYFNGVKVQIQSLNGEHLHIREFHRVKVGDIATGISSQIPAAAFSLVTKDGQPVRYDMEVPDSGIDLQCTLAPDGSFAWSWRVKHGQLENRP
- Experiment notes: Inhibition of auto-phosphorylation of recombinant human NIK/MAP3K14 activity (AlphaScreen)
- Condition parameters: GST-tagged NIK/MAP3K14 1 nM, 5 μM ATP, 2 h at 25° C.; average of values obtained
pIC50: −log10 of the molar value.

// known answers, use as guide
CN1CC[C@@](O)(c2cccc(-c3nc(-c4cc(N)nc5[nH]ccc45)cs3)c2)C1=O | < 6.30
N#Cc1cnc2[nH]cc(-c3nc(-c4cccc([C@]5(O)CCn6ccnc65)c4)cs3)c2c1 | ≥ 7.00
CC1(C)Cc2cccnc2[C@@]1(O)c1cccc(-c2csc(-c3c[nH]c4ncccc34)n2)c1 (single isomer, unassigned) | < 6.30

Sure, the documented pIC50 for `Cc1ccc(-c2csc(-c3c[nH]c4nccnc34)n2)cc1[C@@]1(O)CCN(C)C1=O` is < 6.30
